measured.on: FXR (Homo sapiens, UniProt Q96RI1)
Construct: using a full length FXR on a natural response element; expressed in transfected cells
experiment: cell-based transcription assay, FXR responsive promoter linked to a luciferase reporter
experimental.setup: Tables 1-15; FXR activation, cell-based reporter assay; read-out: EC50
Description: In addition to ensuring that only cell permeable compounds were selected for further optimization, this approach allows for the detection of FXR activation in a natural system (i.e., correct folding of the protein and in the presence of a complete compliment of co-activators and co-repressors). […] EC50 values were determined with Prism 3.0 software via the activity of the subject compound in the previously described cell based assay.
The following ranges of EC50 define the classes used here: low interval (below 200 nM), middle interval (200 nM to below 300 nM), high interval (300 nM or more)

Answered cases to consult:
>>> answer_label("COC(=O)/C=C/c1cccc(N(Cc2cccc(C(F)(F)F)c2)C(=O)C2CCCCC2)c1")
"high interval"
>>> answer_label("COC(=O)/C=C/c1cccc(N(Cc2ccc(C(C)(C)C)cc2)C(=O)C2CCCCC2)c1")
"high interval"
>>> answer_label("COC(=O)/C=C/c1cccc(N(Cc2ccc(/C=C/c3ccc(F)cc3)cc2)C(=O)NC(C)C)c1")
"high interval"

Bin? COC(=O)C=Cc1cccc(N(Cc2ccc(C=Cc3ccc(F)cc3)cc2)C(=O)C2CCCCC2)c1 low interval

Lab log: COC(=O)/C=C/c1cccc(N(Cc2ccc(-c3ccc(OC(F)(F)F)cc3)cc2)C(=O)NC(C)C)c1 — assign EC50 category high interval

Into which bin does this compound go? COC(=O)/C=C/c1cccc(N(Cc2ccc(-c3ccc4c(c3)OCO4)cc2)C(=O)C(C)C)c1 low interval

Category of COC(=O)C=Cc1cccc(N(Cc2ccc(C=CC(=O)OC(C)C)cc2)C(=O)C2CCCCC2)c1 : low interval

Kindly identify the class of COC(=O)C=Cc1cccc(N(Cc2ccc(C=CC(=O)OC(C)(C)C)cc2OCc2ccccc2)C(=O)C2CCCCC2)c1 . high interval

###

measured.on: FXR (Homo sapiens, UniProt Q96RI1)
Construct: using a full length FXR on a natural response element; expressed in transfected cells
Sequence (Q96RI1 1-486): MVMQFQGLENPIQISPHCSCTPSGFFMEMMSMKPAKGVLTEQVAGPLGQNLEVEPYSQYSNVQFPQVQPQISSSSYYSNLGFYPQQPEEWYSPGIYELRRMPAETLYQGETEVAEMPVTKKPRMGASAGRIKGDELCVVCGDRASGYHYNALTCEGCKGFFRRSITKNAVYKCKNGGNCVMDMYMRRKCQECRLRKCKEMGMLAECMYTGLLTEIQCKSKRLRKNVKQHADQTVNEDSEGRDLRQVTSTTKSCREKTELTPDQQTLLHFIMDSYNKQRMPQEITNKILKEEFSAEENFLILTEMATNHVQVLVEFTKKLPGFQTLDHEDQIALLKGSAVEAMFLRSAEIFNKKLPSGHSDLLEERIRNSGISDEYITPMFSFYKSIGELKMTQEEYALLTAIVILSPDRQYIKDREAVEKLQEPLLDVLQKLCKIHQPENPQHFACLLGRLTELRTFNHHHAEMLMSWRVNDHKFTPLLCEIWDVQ
experiment: cell-based transcription assay, FXR responsive promoter linked to a luciferase reporter
experimental.setup: Tables 1-15; FXR activation, cell-based reporter assay; read-out: EC50
result.type: pEC50
pEC50 is a log-scale quantity: -log10 of the concentration expressed in molar.

>>> measured("COC(=O)/C=C/c1cccc(N(Cc2ccc(-c3ccc(F)c(Cl)c3)cc2)C(=O)NC(C)C)c1")
5.52
>>> measured("CCOc1cccc(-c2ccc(CN(C(=O)C3CCCCC3)c3cccc(/C=C/C(=O)OC)c3)cc2)c1")
6.83
>>> measured("COC(=O)/C=C/c1cccc(N(Cc2ccc(-c3cccc(C)c3)cc2)C(=O)NC(C)C)c1")
5.88
>>> measured("CCOc1cccc(-c2ccc(CN(C(=O)NC(C)C)c3cccc(/C=C/C(=O)OC)c3)cc2)c1")
5.63
>>> measured("COC(=O)/C=C/c1cccc(N(Cc2ccc(-c3ccccc3OC)cc2)C(=O)C2CCCCC2)c1")
6.40

Field request: pEC50 | item: COC(=O)/C=C/c1cccc(N(Cc2ccc(-c3cc(Cl)ccc3OC)cc2)C(=O)C(C)C)c1 6.65

###

measured.on: FXR (Homo sapiens, UniProt Q96RI1)
Construct: using a full length FXR on a natural response element; expressed in transfected cells
experiment: cell-based transcription assay, FXR responsive promoter linked to a luciferase reporter
experimental.setup: cell-based reporter assay
result.type: FXR activation (in words)

Known FXR activation (in words) results, listed for orientation:
>>> measured("COC(=O)/C=C/c1cccc(N(Cc2ccc3c(c2OC)OC(C)(C)C=C3)C(=S)NCc2ccccc2)c1 [Compound 84]")
"inactive"
>>> measured("COC(=O)/C=C/c1cccc(N(Cc2ccc(-c3ccc4c(c3)OCO4)cc2)C(=O)NC(C)C)c1 [Compound 246]")
"excellent activity"
>>> measured("COC(=O)/C=C/c1cccc(N(Cc2ccc(-c3ccc(F)c(Cl)c3)cc2)C(=O)C2CCCCC2)c1 [Compound 247]")
"excellent activity"
>>> measured("COC(=O)/C=C/c1cccc(N(Cc2ccc(/C=C/C(=O)OC(C)(C)C)cc2)C(=O)C2CCCC2)c1 [Compound 142]")
"excellent activity"

Now for the molecule whose FXR activation (in words) we want.
Which FXR activation (in words) value is on record for COC(=O)/C=C/c1cccc(N(Cc2ccc(-c3cccc(C)c3)cc2)C(=O)C2CCCCC2)c1 [Compound 238] ? excellent activity

###

measured.on: FXR (Homo sapiens, UniProt Q96RI1)
Construct: using a full length FXR on a natural response element; expressed in transfected cells
experiment: cell-based transcription assay, FXR responsive promoter linked to a luciferase reporter
experimental.setup: Tables 1-15; FXR activation, cell-based reporter assay; read-out: EC50
pEC50: −log10 of the molar value.
Collected pEC50 values appear next to each entry.

Item COC(=O)C=Cc1cccc(N(Cc2ccc(C=CC(=O)NCC(C)C)cc2)C(=O)C2CCCCC2)c1 has what recorded pEC50? < 6.00

What measured pEC50 goes with COC(=O)/C=C/c1cccc(NC(=O)C2CCCCC2)c1 ? < 6.00

Give the measured pEC50 of COC(=O)/C=C/c1cccc(N(Cc2ccc3c(c2OC)OC(C)(C)C=C3)C(=O)c2ccccc2)c1 . < 6.00

Please report the recorded pEC50 for COC(=O)C=Cc1cccc(N(Cc2ccc(C=CC(=O)OC(C)(C)C)cc2O)C(=O)C2CCCCC2)c1 . < 6.00

###

measured.on: FXR (Homo sapiens)
Construct: using a full length FXR on a natural response element; expressed in transfected cells
experiment: cell-based transcription assay, FXR responsive promoter linked to a luciferase reporter
Design: scale not given here
experimental.setup: Tables 1-15; RE not defined in the source
Let's look at some compounds and their measured RE.

Consider the following illustrative entries.
>>> measured("COC(=O)/C=C/c1cccc(N(Cc2ccc3c(c2OC)OC(C)(C)C=C3)C(=O)c2ccccc2)c1")
0.83
>>> measured("COC(=O)/C=C/c1cccc(N(Cc2ccc(-c3ccc(C(C)(C)C)cc3)cc2)C(=O)C2CCCCC2)c1")
1.38
>>> measured("COC(=O)/C=C/c1cccc(N(Cc2ccc(-c3c(OC)cccc3OC)cc2)C(=O)C(C)C)c1")
0.10
>>> measured("COC(=O)/C=C/c1cccc(N(Cc2ccc(/C=C/c3c(C)cc(C)cc3C)cc2)C(=O)NC(C)C)c1")
0.14
>>> measured("COC(=O)/C=C/c1cccc(N(Cc2ccc(/C=C/c3c(Cl)cccc3Cl)cc2)C(=O)NC(C)C)c1")
0.15

Next, consider the following compound.
Given the entry COC(=O)C=Cc1cccc(N(Cc2ccc(C=CC(=O)OC(C)(C)C)cc2OC(C)=O)C(=O)C2CCCCC2)c1 , what RE was observed with FXR (Homo sapiens)? 0.16

###

measured.on: FXR (Homo sapiens)
Construct: using a full length FXR on a natural response element; expressed in transfected cells
experiment: cell-based transcription assay, FXR responsive promoter linked to a luciferase reporter
experimental.setup: FXR activation, cell-based reporter assay; read-out: EC50
result.type: EC50

>>> measured("COC(=O)/C=C/c1cccc(N(Cc2ccc(/C=C/C(=O)OC(C)(C)C)cc2)C(=O)C2CC2)c1")
"127 to 250 nM"
>>> measured("COC(=O)C=Cc1cccc(N(Cc2ccc(C=Cc3ccc(C(C)(C)C)cc3)cc2)C(=O)C2CCCCC2)c1")
"> 1000 nM"
>>> measured("COC(=O)/C=C/c1cccc(N(Cc2ccc(/C=C/C(=O)OC(C)(C)C)cc2)C(=O)C2CCCC2)c1")
"127 to 250 nM"

I'm curious: which EC50 was measured for COC(=O)/C=C/c1cccc(N(Cc2ccc(/C=C/C(=O)OC(C)(C)C)cc2)C(=O)C2CCC2)c1 tested on FXR (Homo sapiens)? 127 to 250 nM
